Type: in vivo, human
settings: human, plasma, oral, 40 mg, Tmax, individual subjects, three PM subjects, day 1
endpoint: Tmax (h)

| compound | unitsText | result |
| --- | --- | --- |
| COc1ccc2[nH]c([S+]([O-])Cc3ncc(C)c(OC)c3C)nc2c1 (stereo not shown) [omeprazole, reference compound] | h | 8 |
